This section presents molecules with their documented IC50 at 48 h values.
# Assay: Cytotoxicity against human WI38 cells assessed as reduction in cell viability after 48 hrs by MTT assay
# Format: toxicity, cell-based, WI-38

# Smiles notation, Uom, Value qualifier, IC50 at 48 h
records = [
    ("Nc1ccc(C(=O)/C=C/c2ccc3c(c2)B(O)OC3)cc1", "µM", "=", 25.4),
    ("Nc1cccc(C(=O)/C=C/c2ccc3c(c2)B(O)OC3)c1", "µM", "=", 25.3),
    ("COc1ccc(C(=O)/C=C/c2ccc3c(c2)B(O)OC3)cc1OC", "µM", "=", 33.5),
    ("O=C(O)c1ccc(C(=O)/C=C/c2ccc3c(c2)B(O)OC3)cc1", "µM", ">", 100),
    ("O=C(/C=C/c1ccc2c(c1)B(O)OC2)c1ccc(O)cc1", "µM", ">", 100),
    ("COc1ccc(C(=O)/C=C/c2ccc3c(c2)B(O)OC3)c(OC)c1", "µM", "=", 86.3),
    ("COc1cccc2c1C(=O)c1c(O)c3c(c(O)c1C2=O)C[C@@](O)(C(=O)CO)C[C@@H]3O[C@H]1C[C@H](N)[C@H](O)[C@H](C)O1", "µM", "=", 9),
]
